# Tested on: SK-OV-3 ovarian
# experiment: NCI tumour cell line growth inhibition, 48 h
readout.name: TGI

Here's what some known entries look like.
[
  {
    "compound": "CSc1s[s+]c(SC)c1-c1ccccc1",
    "readout.name": "TGI",
    "endpoint.value": "38 µM"
  },
  {
    "compound": "COC(=O)C1CCC(=NC2c3ccccc3-c3ccccc32)N1 (configuration not stated)",
    "readout.name": "TGI",
    "endpoint.value": "> 100 µM"
  },
  {
    "compound": "O=C1c2cccc3cccc(c23)C(=O)N1CCCN1CCN(CCCN2C(=O)c3cccc4cccc(c34)C2=O)CC1",
    "readout.name": "TGI",
    "endpoint.value": "> 100 µM"
  }
]

Could you tell me TGI for each of these compounds? They are listed below.
1. O=C(O)CCCc1nc2c(n1-c1ccccc1)C(=O)c1ccccc1C2=O
2. CC1(C)CC2(C)OC2C2(C1)N=NC(=Nc1ccccc1)O2 (configuration not stated)

// result
> 100 µM
> 100 µM

Could you tell me TGI for each of these compounds? They are listed below.
1. C=C(C)[C@@H]1CCC[C@]2(C(=O)O)CC[C@]3(C)[C@@H](CC[C@@H]4[C@@]5(C)C/C(=C/c6ccncc6)C(=O)C(C)(C)[C@@H]5CC[C@]43C)[C@@H]12
2. CCCOc1c2cc(COC3OC(CO)C(O)C(O)C3O)cc1Cc1cc(COC3OC(CO)C(O)C(O)C3O)cc(c1OCCC)Cc1cc(COC3OC(CO)C(O)C(O)C3O)cc(c1OCCC)Cc1cc(COC3OC(CO)C(O)C(O)C3O)cc(c1OCCC)C2 (configuration not stated)
3. Cc1ccc(C2=Nn3c(nc4sc(-c5ccccc5)cc4c3=O)SC2)cc1
4. CC1SC2(CCCCC2)N(NC(=O)c2[nH]c3ccc(F)cc3c2-c2ccccc2)C1=O (configuration not stated)
5. COc1ccc(-c2c(C(C)=O)c(C)n(C3OC(CO)C(O)C(O)C3O)c(=S)c2C#N)cc1 (configuration not stated)
6. Cc1cnc2[nH]c(-c3ccccc3)cc(=O)c2c1
7. COc1ccc(C=O)cc1Oc1ccc(C[C@H]2c3c(cc(OC)c4c3Oc3cc5c(cc3O4)CCN(C)C5=O)CCN2C)cc1

// result
1: 34.3 µM; 2: > 100 µM; 3: > 100 µM; 4: > 100 µM; 5: > 100 µM; 6: 16.4 µM; 7: 17.5 µM

Could you tell me TGI for each of these compounds? They are listed below.
1. COc1ccc(N(Cc2cc(OC)c(OC)c(OC)c2)C2OC(=O)c3ccccc32)cc1 (configuration not stated)
2. C=C(CCC(C(=O)O)C1CCC2(C)C3=C(CCC12C)C1(C)CCC(O)C(C)(C)C1CC3)C(C)C (configuration not stated)
3. C=C1C(=O)O[C@H]2C(=O)[C@H](C)CCC[C@@](C)(O)/C=C\C[C@@]3(C)O[C@@H]3C[C@@H]12
4. NC(CO)c1ccccc1 (configuration not stated)
5. Cn1c(=O)c2[nH]c(N/N=C3/SCC(=O)N3Cc3ccccc3)nc2n(C)c1=O

// result
["> 100 µM", "> 100 µM", "> 100 µM", "> 100 µM", "> 100 µM"]
